Tested on: PRKCA
Parameters: species or system human, MV4-11 + K-562 + COLO205 + SK-N-BE2 + OVCAR-8
Settings: read-out: apparent Kd; compound concentrations:100 nM and 1000 nM (sheet 'Samples'); n = 1
So I've got a bunch of molecules here, and I need their potency estimated from few doses values.

Entry under review: NCCNS(=O)(=O)c1ccc(-c2ccnc3[nH]ccc23)cc1 [GSK977617A] . Reported potency estimated from few doses? 1270 nM

Entry under review: CCn1c(-c2nonc2N)nc2c(C#CC(C)(C)O)nc(O[C@@H](CN)c3ccccc3)cc21.O=C(O)C(F)(F)F [GSK1007102B] . Reported potency estimated from few doses? 1410 nM

Entry under review: CCn1c(-c2nonc2N)nc2cncc(C(=O)N3CC[C@H](N)C3)c21.Cl . Reported potency estimated from few doses? 826 nM

Entry under review: Cl.Nc1nccc(-c2c(-c3ccc(F)cc3)ncn2C2CCNCC2)n1 . Reported potency estimated from few doses? 2370 nM

Entry under review: COc1ccc(C[C@@H](CN)NC(=O)c2cc(Br)c(-c3ccnc4[nH]ccc34)s2)cc1.COc1ccc(C[C@@H](CN)NC(=O)c2cc(Br)c(-c3ccnc4[nH]ccc34)s2)cc1.Cl.Cl [GSK1389063A] . Reported potency estimated from few doses? 2340 nM

Entry under review: COc1ccc(O)c(C(=O)c2ccc(C(=O)O[C@@H]3CCCNC[C@H]3NC(=O)c3ccncc3)cc2)c1F.Cl . Reported potency estimated from few doses? 227 nM

Entry under review: CCn1c(-c2nonc2N)nc2cncc(Br)c21 . Reported potency estimated from few doses? 1290 nM

Entry under review: Cc1occc1-c1nc(N)c(OC[C@@H](N)Cc2c[nH]c3ccccc23)cc1-c1cc2c(C)n[nH]c2cn1 [GSK1660450B] . Reported potency estimated from few doses? 40 nM

Entry under review: CCn1c(-c2nonc2N)nc2cncc(C(=O)N3CCNCC3)c21.Cl . Reported potency estimated from few doses? 1900 nM

Entry under review: N#Cc1cccc(Nc2nccc(-c3cnn4ncccc34)n2)c1 [GW778894X] . Reported potency estimated from few doses? 1180 nM

Entry under review: Cl.Cn1cc(C2=C(c3cn(CCCN)c4ccccc34)C(=O)NC2=O)c2ccccc21 . Reported potency estimated from few doses? 117 nM

Entry under review: Cc1cccc(Nc2nc(N[C@H]3CCCC[C@H]3N)ncc2C(N)=O)c1.Cl [GSK986310C] . Reported potency estimated from few doses? 1130 nM

Entry under review: Cn1cc(C2=C(c3c4n(c5ccccc35)CCC(CN)CC4)C(=O)NC2=O)c2ccccc21 (stereo not shown) . Reported potency estimated from few doses? 22.2 nM

====

System: CDC42BPG
Parameters: species or system human, MV4-11 + K-562 + COLO205 + SK-N-BE2 + OVCAR-8
Details: read-out: apparent Kd; compound concentrations:100 nM and 1000 nM (sheet 'Samples'); n = 1
EXPERIMENTAL READOUT: potency estimated from few doses (nM)
Express it in nM; write the number only.

Entry under review: CC(C)NCC(Cc1ccccc1)NC(=O)c1cc(Br)c(-c2ccnc3[nH]ccc23)s1.CC(C)NCC(Cc1ccccc1)NC(=O)c1cc(Br)c(-c2ccnc3[nH]ccc23)s1.Cl.Cl (stereo not shown) [GSK1383281A] . Reported potency estimated from few doses? 1360

Entry under review: CCn1c(-c2nonc2N)nc2c(C#CC(C)(C)O)nc(O[C@@H](CN)c3ccccc3)cc21.O=C(O)C(F)(F)F [GSK1007102B] . Reported potency estimated from few doses? 191

Entry under review: NCCNS(=O)(=O)c1ccc(-c2ccnc3[nH]ccc23)cc1 [GSK977617A] . Reported potency estimated from few doses? 442

Entry under review: COc1ccc(C[C@@H](CN)NC(=O)c2cc(Br)c(-c3ccnc4[nH]ccc34)s2)cc1.COc1ccc(C[C@@H](CN)NC(=O)c2cc(Br)c(-c3ccnc4[nH]ccc34)s2)cc1.Cl.Cl [GSK1389063A] . Reported potency estimated from few doses? 21.2

Entry under review: O=C(O)C(F)(F)F.O=c1[nH]ccc2nc(N[C@@H]3CCNC3)nc(Nc3cc(Cl)cc(Cl)c3)c12 [GSK2188764A] . Reported potency estimated from few doses? 556

Entry under review: Cl.Cl.NC[C@H](CC1CCCCC1)NC(=O)c1cc(Br)c(-c2ccnc3[nH]ccc23)s1.NC[C@H](CC1CCCCC1)NC(=O)c1cc(Br)c(-c2ccnc3[nH]ccc23)s1 [GSK1581427A] . Reported potency estimated from few doses? 13.7

Entry under review: O=C(Nc1n[nH]c2nc(-c3ccccc3)ccc12)C1CC1 . Reported potency estimated from few doses? 1760

====

System: DCTPP1
Parameters: species or system human, MV4-11 + K-562 + COLO205 + SK-N-BE2 + OVCAR-8
Details: read-out: apparent Kd; compound concentrations:100 nM and 1000 nM (sheet 'Samples'); n = 1
EXPERIMENTAL READOUT: potency estimated from few doses
Could you kindly put the unit after your number?

Entry under review: CNc1nc(-c2ccc3c(N)n[nH]c3c2)cc(N2C[C@@H](C(=O)NC3CCCCC3)CC[C@H]2C)n1 . Reported potency estimated from few doses? 1890 nM

Entry under review: Cc1cccc(Nc2nc(N[C@H]3CCNC3)ncc2C(N)=O)c1.Cl [GSK2197149A] . Reported potency estimated from few doses? 1150 nM

Entry under review: Nc1nc(-c2ccc3c(N)n[nH]c3c2)cc(N2CCCCC2)n1 [GSK2228768A] . Reported potency estimated from few doses? 1720 nM

Entry under review: Cl.Cn1c(=O)c(Oc2ccc(F)cc2F)cc2cnc(NC3CCS(=O)(=O)CC3)nc21 . Reported potency estimated from few doses? 1310 nM

====

So I've got a bunch of compounds here, and I need their potency estimated from few doses values.
Tested on: PLK4
Set-up: species or system human, MV4-11 + K-562 + COLO205 + SK-N-BE2 + OVCAR-8
Conditions: read-out: apparent Kd; compound concentrations:100 nM and 1000 nM (sheet 'Samples'); n = 1
Express it in nM; write the number only.

Entry under review: O=C1NC(=O)C(N2CCc3ccccc32)=C1c1ccccc1Cl [SB-373598] . Reported potency estimated from few doses? 273

Entry under review: CC(C)c1nc(-c2ccc(F)c(NS(=O)(=O)c3c(F)cccc3F)c2)c(-c2ccnc(Nc3ccc(N4CCOCC4)nc3)n2)s1 [GSK1804250A] . Reported potency estimated from few doses? 403

Entry under review: CC(=O)N[C@@H](Cc1ccc(OP(=O)(O)O)cc1)C(=O)N[C@H]1CCC(=O)N2CCC[C@@H](C(=O)NCc3ccc(Cl)cc3)N2C1=O [RO0325308-000] . Reported potency estimated from few doses? 637

Entry under review: O=C(Nc1n[nH]c2nc(-c3ccccc3O)ccc12)C1CC1 [SB-711880] . Reported potency estimated from few doses? 867

====

Tested on: MAPK8
Design: species or system human, MV4-11 + K-562 + COLO205 + SK-N-BE2 + OVCAR-8
Conditions: read-out: apparent Kd; compound concentrations:100 nM and 1000 nM (sheet 'Samples'); n = 1
So I've got a bunch of molecules here, and I need their potency estimated from few doses values.
Could you kindly put the unit after your number?

Entry under review: N#CCn1c(=O)c(Oc2ccc(F)cc2F)cc2cnc(NC3CCOCC3)nc21 . Reported potency estimated from few doses? 523 nM

Entry under review: CS(=O)(=O)CCCn1c(=O)c(Oc2ccc(F)cc2F)cc2cnc(NC3CCOCC3)nc21 . Reported potency estimated from few doses? 466 nM

Entry under review: COc1cc(N2CCN(C(C)C)CC2)ccc1Nc1nc(Nc2ccc(F)cc2C(=O)NC[C@@H](O)CO)c2cc[nH]c2n1 [GSK1392956A] . Reported potency estimated from few doses? 140 nM

Entry under review: O=c1[nH]c2nc(NC3CCOCC3)ncc2cc1Oc1ccc(F)cc1F . Reported potency estimated from few doses? 554 nM

====

So I've got a bunch of compounds here, and I need their potency estimated from few doses values.
Tested on: PIP4K2C
Set-up: species or system human, MV4-11 + K-562 + COLO205 + SK-N-BE2 + OVCAR-8
Conditions: read-out: apparent Kd; compound concentrations:100 nM and 1000 nM (sheet 'Samples'); n = 1

Entry under review: Cl.Cn1c(=O)c(Oc2ccccc2)cc2cnc(NC3CCOCC3)nc21 . Reported potency estimated from few doses? 896 nM

Entry under review: CS(=O)(=O)Nc1ccc(-c2ccnc3[nH]ccc23)cc1 [GSK993273A] . Reported potency estimated from few doses? 482 nM

Entry under review: O=C1NC(=O)C(N2CCc3ccccc32)=C1c1ccccc1Cl . Reported potency estimated from few doses? 1020 nM

Entry under review: CNCc1ccc(-c2cc(-c3nc(-c4ccc(S(=O)(=O)C(C)C)cc4)cnc3N)on2)cc1 . Reported potency estimated from few doses? 186 nM

Entry under review: O=C(c1ccc(-c2cc(-c3c[nH]nc3-c3ccccn3)ccn2)cc1)N1CCCC1 [GW792479X] . Reported potency estimated from few doses? 1650 nM
